tested on: MCF-7 cells; experiment: MTT antiproliferative assay, MCF-7 cells; assay type: cell-based, human; conditions: Homo sapiens, MCF7, 48 h, exposure for 48 h
# label = 1 (yes) if IC50 < 10 µM else 0 (no)

>  <compound>
COc1cc(N(Cc2nc(C)c3ccccc3n2)S(=O)(=O)c2ccc(Br)cc2)cc(OC)c1OC [Compound 10c]

>  <classification>
1 (yes)

$$$$
>  <compound>
COc1cc(N(Cc2nc(C)c3ccccc3n2)S(=O)(=O)c2cccs2)cc(OC)c1OC [Compound 10i]

>  <classification>
0 (no)

$$$$
>  <compound>
COc1ccc(S(=O)(=O)N(Cc2nc(C)c3ccccc3n2)c2ccccc2)cc1 [Compound 14a]

>  <classification>
0 (no)

$$$$
>  <compound>
COc1cc(N(Cc2nc(C)c3ccccc3n2)C(=O)c2c(C)cc(C)cc2C)cc(OC)c1OC [Compound 11f]

>  <classification>
0 (no)

$$$$
>  <compound>
COc1ccc(S(=O)(=O)N(Cc2ccccc2)c2cc(OC)c(OC)c(OC)c2)cc1

>  <classification>
0 (no)

$$$$
>  <compound>
COc1ccc(CN(c2cc(OC)c(OC)c(OC)c2)S(=O)(=O)c2ccc(C)cc2)cc1

>  <classification>
0 (no)

$$$$
>  <compound>
COc1ccc(CN(c2cc(OC)c(OC)c(OC)c2)S(=O)(=O)c2ccc(OC)cc2)cc1

>  <classification>
1 (yes)

$$$$
>  <compound>
COc1cc(N(Cc2nc(C)c3ccccc3n2)C(=O)c2ccc(C)cc2)cc(OC)c1OC [Compound 11e]

>  <classification>
0 (no)

$$$$
>  <compound>
COc1cc(N(Cc2nc(C)c3ccccc3n2)C(=O)c2ccc(C(C)(C)C)cc2)cc(OC)c1OC [Compound 11g]

>  <classification>
0 (no)

$$$$
>  <compound>
COc1ccc(S(=O)(=O)N(Cc2ccc(Cl)cc2)c2cc(OC)c(OC)c(OC)c2)cc1

>  <classification>
0 (no)

$$$$
>  <compound>
COc1ccc(S(=O)(=O)N(Cc2ccc(OC)c(OC)c2)c2cc(OC)c(OC)c(OC)c2)cc1

>  <classification>
0 (no)

$$$$
>  <compound>
COc1ccc(S(=O)(=O)N(Cc2nc(C)c3ccccc3n2)c2ccc(C)cc2)cc1 [Compound 14d]

>  <classification>
0 (no)

$$$$
>  <compound>
COc1ccc(S(=O)(=O)N(Cc2cccnc2)c2cc(OC)c(OC)c(OC)c2)cc1

>  <classification>
1 (yes)

$$$$
>  <compound>
COc1ccc(S(=O)(=O)N(Cc2c(C)noc2C)c2cc(OC)c(OC)c(OC)c2)cc1

>  <classification>
0 (no)

$$$$
>  <compound>
COc1cc(N(Cc2nc(C)c3ccccc3n2)S(=O)(=O)c2ccc(F)cc2)cc(OC)c1OC [Compound 10b]

>  <classification>
1 (yes)

$$$$
>  <compound>
COc1cc(N(Cc2nc(C)c3ccccc3n2)C(=O)c2ccc(Br)cc2)cc(OC)c1OC [Compound 11c]

>  <classification>
0 (no)

$$$$

----------
Parameter pIC50: see the listing below.
tested on: MCF-7 cells; assay: MTT antiproliferative assay, MCF-7 cells; format: cell-based, human; conditions: Homo sapiens, MCF7, 48 h, exposure for 48 h
pIC50: −log10 of the molar value.

>  <compound>
COc1ccc(S(=O)(=O)N(Cc2ccc(C)cc2)c2cc(OC)c(OC)c(OC)c2)cc1 [Compound 9d]

>  <modifier.sign>
=

>  <pIC50>
4.38

$$$$
>  <compound>
COc1cc(N(Cc2nc(C)c3ccccc3n2)S(=O)(=O)c2ccccc2)cc(OC)c1OC [Compound 10a]

>  <modifier.sign>
<

>  <pIC50>
4.30

$$$$
>  <compound>
COc1ccc(C(=O)N(Cc2nc(C)c3ccccc3n2)c2cc(OC)c(OC)c(OC)c2)cc1 [Compound 11h]

>  <modifier.sign>
=

>  <pIC50>
4.65

$$$$
>  <compound>
COc1ccc(CN(c2cc(OC)c(OC)c(OC)c2)S(=O)(=O)c2cccs2)cc1 [Compound 6f]

>  <modifier.sign>
=

>  <pIC50>
4.58

$$$$
>  <compound>
COc1cc(N(Cc2nc(C)c3ccccc3n2)C(=O)c2cccs2)cc(OC)c1OC [Compound 11j]

>  <modifier.sign>
<

>  <pIC50>
4.40

$$$$
>  <compound>
COc1ccc(CN(c2cc(OC)c(OC)c(OC)c2)S(=O)(=O)c2cccnc2)cc1 [Compound 6g]

>  <modifier.sign>
<

>  <pIC50>
4.40

$$$$
>  <compound>
COc1cc(N(Cc2nc(C)c3ccccc3n2)S(=O)(=O)c2ccccn2)cc(OC)c1OC [Compound 10j]

>  <modifier.sign>
=

>  <pIC50>
4.47

$$$$
>  <compound>
COc1cc(N(Cc2nc(C)c3ccccc3n2)S(=O)(=O)c2ccccc2Cl)cc(OC)c1OC [Compound 10d]

>  <modifier.sign>
=

>  <pIC50>
4.66

$$$$
